Data origin: patent US8735414B2

quantity.measured: melting point

{"molecular.string": "CC(C)(NS(=O)(=O)c1ccc(-c2c(C#N)c3cc(F)c(C4CC4)cc3n2C2CCCC2)nc1)C(F)(F)F", "observed.measurement": "183 to 185 °C"}
{"molecular.string": "C[C@H](NS(=O)(=O)c1ccc(-c2c(C#N)c3ccc(OC(F)F)cc3n2-c2ccccc2)nc1)C(F)(F)F", "observed.measurement": "209 to 211 °C"}
{"molecular.string": "C[C@@H](NS(=O)(=O)c1ccc(-c2c(C#N)c3cc(F)c(C4CC4)cc3n2C2CCCC2)nc1)C(F)(F)F", "observed.measurement": "180 to 181 °C"}
{"molecular.string": "C[C@@H](NS(=O)(=O)c1ccc(-c2c(C#N)c3ccc(C(F)F)cc3n2C2CCC2)nc1)C(F)(F)F", "observed.measurement": "200 to 206 °C"}
{"molecular.string": "Cc1cc2c(cc1F)c(C#N)c(-c1ccc(S(=O)(=O)NC(C)(C)C)cn1)n2C1CCCCC1", "observed.measurement": "244 to 245 °C"}
{"molecular.string": "Cc1cc(F)c2c(C#N)c(-c3ccc(S(=O)(=O)N[C@@H](C)C(F)(F)F)cn3)n(C3CCC3)c2c1", "observed.measurement": "205 to 210 °C"}
{"molecular.string": "CCc1cc2c(cc1F)c(C(N)=O)c(-c1ccc(S(=O)(=O)N[C@@H](C)C(F)(F)F)cn1)n2-c1ccnc(C)n1", "observed.measurement": "115 to 120 °C"}

* * *

{"molecular.string": "COc1cc2c(cc1F)c(C#N)c(-c1ccc(S(=O)(=O)NC(C)C)cn1)n2C1CCC1", "melting point": "234 to 237 °C"}
{"molecular.string": "CCCn1c(-c2ncc(S(=O)(=O)N[C@@H](C)C(F)(F)F)cn2)c(C#N)c2ccc(OC(F)F)cc21", "melting point": "207 to 208 °C"}
{"molecular.string": "CCc1cc2c(cc1F)c(C(N)=O)c(-c1ccc(S(=O)(=O)N[C@@H](C)C(F)(F)F)cn1)n2C1CCCC1", "melting point": "237 to 238 °C"}
{"molecular.string": "CCn1c(-c2ccc(N(CC(F)F)S(=O)(=O)C3CC3)nc2)c(C#N)c2ccc(OC(C)C)cc21", "melting point": "232 to 235 °C"}

* * *

quantity.measured: melting point

{"molecule": "Cc1c(F)cc2c(C#N)c(-c3ccc(S(=O)(=O)NC(CF)CF)cn3)n(C3CCC3)c2c1F [compound 533]", "quantity.measured": "melting point", "observed.measurement": "158 to 170 °C"}
{"molecule": "CC(C)NS(=O)(=O)c1cnc(-c2c(C#N)c3ccc(OC(F)F)cc3n2CC2CC2)nc1 [compound 170]", "quantity.measured": "melting point", "observed.measurement": "182 to 184 °C"}
{"molecule": "CCc1cc2c(cc1F)c(C#N)c(-c1ccc(S(=O)(=O)N[C@@H](C)C(F)(F)F)cn1)n2-c1ccc(F)c(F)c1 [compound 1061]", "quantity.measured": "melting point", "observed.measurement": "229 to 235 °C"}
{"molecule": "Cc1nc(NS(=O)(=O)C(C)(C)C)ccc1-c1c(C(N)=O)c2cc(F)c(OC(F)F)cc2n1C(C)C [compound 1095]", "quantity.measured": "melting point", "observed.measurement": "234 to 235 °C"}
{"molecule": "C[C@@H](NS(=O)(=O)c1ccc(-c2c(C#N)c3ccc(OC(F)F)cc3n2C2CCCCC2)nc1)C(F)(F)F [compound 195]", "quantity.measured": "melting point", "observed.measurement": "170 to 172 °C"}
{"molecule": "Cc1cc2c(cc1F)c(C#N)c(-c1ccc(S(=O)(=O)N[C@@H](C)C(F)(F)F)cn1)n2-c1ccc(Cl)s1 [compound 1032]", "quantity.measured": "melting point", "observed.measurement": "244.8 to 247.4 °C"}
{"molecule": "N#Cc1ccc2c(C#N)c(-c3ccc(S(=O)(=O)NC(CF)CF)cn3)n(CC3CC3)c2c1 [compound 347]", "quantity.measured": "melting point", "observed.measurement": "199 to 201 °C"}
{"molecule": "C[C@H](NS(=O)(=O)c1cnc(-c2c(C#N)c3cc(Cl)ccc3n2C2CCCCC2)nc1)C(F)(F)F [compound 464]", "quantity.measured": "melting point", "observed.measurement": "253 to 255 °C"}
{"molecule": "CC(C)NS(=O)(=O)c1cnc(-c2c(C#N)c3ccc(C4CC4)cc3n2CC2CC2)nc1 [compound 124]", "quantity.measured": "melting point", "observed.measurement": "169 to 174 °C"}
{"molecule": "N#Cc1c(-c2ncc(S(=O)(=O)NC(CF)CF)cn2)n(C2CCC2)c2cc(N3CCOCC3)ccc12 [compound 321]", "quantity.measured": "melting point", "observed.measurement": "223 to 225 °C"}
{"molecule": "C[C@H](NS(=O)(=O)c1cnc(-c2c(C#N)c3cc(Cl)ccc3n2C2CCC2)nc1)C(F)(F)F [compound 454]", "quantity.measured": "melting point", "observed.measurement": "232 to 234 °C"}
{"molecule": "N#Cc1c(-c2ncc(S(=O)(=O)NC(CF)CF)cn2)n(C2CCCC2)c2cc(OC(F)(F)F)ccc12 [compound 178]", "quantity.measured": "melting point", "observed.measurement": "181 to 187 °C"}
{"molecule": "COc1ccc2c(c1)c(C#N)c(-c1ccc(S(=O)(=O)N[C@@H](C)C(F)(F)F)cn1)n2C1CCC1 [compound 453]", "quantity.measured": "melting point", "observed.measurement": "181 to 183 °C"}
{"molecule": "Cc1ccc2c(C#N)c(-c3ncc(S(=O)(=O)N[C@@H](C)C(F)(F)F)cn3)n(C3CCCCC3)c2c1 [compound 605]", "quantity.measured": "melting point", "observed.measurement": "257 to 260 °C"}
{"molecule": "CC(C)(C)S(=O)(=O)Nc1ccc(-c2c(C#N)c3cc(F)c(C4CC4)cc3n2-c2ccccc2)cn1 [compound 1101]", "quantity.measured": "melting point", "observed.measurement": "249 to 250 °C"}
{"molecule": "CC(C)n1c(-c2ccc(S(=O)(=O)NC(CF)CF)cn2)c(C#N)c2cc(Cl)ccc21 [compound 65]", "quantity.measured": "melting point", "observed.measurement": "212 to 215 °C"}
{"molecule": "Cc1cc2c(cc1F)c(C#N)c(-c1ccc(S(=O)(=O)N[C@@H](C)C(F)(F)F)cn1)n2-c1cscn1 [compound 960]", "quantity.measured": "melting point", "observed.measurement": "184 to 189 °C"}
{"molecule": "Cc1cc2c(cc1F)c(C#N)c(-c1ccc(S(=O)(=O)NC(C)(C)C)cn1)n2C1CCC1 [compound 651]", "quantity.measured": "melting point", "observed.measurement": "223 to 228 °C"}
{"molecule": "CCc1cc2c(cc1F)c(C#N)c(-c1ccc(S(=O)(=O)N[C@H](C)C(F)(F)F)cn1)n2C1CCC1 [compound 641]", "quantity.measured": "melting point", "observed.measurement": "199 to 199.5 °C"}
{"molecule": "C[C@H](NS(=O)(=O)c1ccc(-c2c(C(N)=O)c3cc(Cl)ccc3n2C2CCC2)nc1)C(F)(F)F [compound 996]", "quantity.measured": "melting point", "observed.measurement": "244 to 245 °C"}
{"molecule": "N#Cc1c(-c2ccc(S(=O)(=O)NC(CF)CF)cn2)n(CC2CC2)c2cc(OC(F)F)ccc12 [compound 41]", "quantity.measured": "melting point", "observed.measurement": "150 to 151 °C"}
{"molecule": "Cc1ccc2c(c1)c(C#N)c(-c1ccc(S(=O)(=O)N[C@@H](C)C3CC3)cn1)n2C1CCC1 [compound 201]", "quantity.measured": "melting point", "observed.measurement": "173 to 178 °C"}
{"molecule": "C[C@H](NS(=O)(=O)c1ccc(-c2c(C#N)c3ccc(Cl)cc3n2-c2ccccn2)nc1)C(F)(F)F [compound 437]", "quantity.measured": "melting point", "observed.measurement": "177 to 178 °C"}
{"molecule": "CCc1cc2c(cc1F)c(C(N)=O)c(-c1ccc(S(=O)(=O)N[C@@H](C)C(F)(F)F)cn1)n2-c1cccnn1 [compound 1046]", "quantity.measured": "melting point", "observed.measurement": "206 to 212 °C"}
{"molecule": "CCc1cc2c(cc1F)c(C(N)=O)c(-c1ccc(S(=O)(=O)N[C@@H](C)C(F)(F)F)cn1)n2-c1ccncc1 [compound 1045]", "quantity.measured": "melting point", "observed.measurement": "219 to 224 °C"}
{"molecule": "CC(C)(C)S(=O)(=O)Nc1ccc(-c2c(C#N)c3ccc(OC(F)F)cc3n2C2CCC2)cn1 [compound 295]", "quantity.measured": "melting point", "observed.measurement": "239 to 240 °C"}
{"molecule": "C[C@H](NS(=O)(=O)c1ccc(-c2c(C#N)c3cc(OC(F)(F)F)ccc3n2-c2cnccn2)nc1)C(F)(F)F [compound 898]", "quantity.measured": "melting point", "observed.measurement": "191 to 195 °C"}
{"molecule": "C[C@@H](NS(=O)(=O)c1ccc(-c2c(C#N)c3cc(F)ccc3n2C2CCC2)nc1)C(F)(F)F [compound 219]", "quantity.measured": "melting point", "observed.measurement": "109 to 110 °C"}
{"molecule": "Cc1ccc2c(C#N)c(-c3ncc(S(=O)(=O)NC(C)C)cn3)n(C3CCC3)c2c1 [compound 169]", "quantity.measured": "melting point", "observed.measurement": "217 to 219 °C"}
